The measurements presented in this section are drawn from ChEMBL document CHEMBL5036330.

# pIC50 per entry
Test system: MCF-10A
test_summary: Cytotoxicity against human MCF-10A cells assessed as reduction in cell viability incubated for 96 hrs by MTT method
Type: cell-based
Value format note: pIC50 is -log10 of concentration (mol/L); just state the number.

{"structure": "COc1cccc2c1C(=O)c1c(O)c3c(c(O)c1C2=O)C[C@@](O)(C(=O)CO)C[C@@H]3O[C@H]1C[C@H](N)[C@H](O)[C@H](C)O1", "target_under_test": "MCF-10A", "reported_result": 7.48}

Entry "C=C1C(=O)C2=C[C@H]1CCC(=O)[C@]1(C)[C@H](O)CCC(C)(C)[C@H]1C[C@H]2O" has what pIC50?
5.98

----------
test_summary: Selectivity index, ratio of IC50 for HEK293 cells to IC50 for human MBA-MB-231 cells
Format: toxicity
conditions_used: HEK293 cells versus MBA-MB-231 cells, read-out: Selectivity Index
experimental_readout: selectivity ratio
Please state the value as a number alone, without comment.

Entry "C=C1C(=O)C2=C[C@H]1CCC(=O)[C@]1(C)[C@H](O)CCC(C)(C)[C@H]1C[C@H]2O" has what selectivity ratio?
26.2

----------
Tested on: MCF7
test_summary: Cytotoxicity against human MCF7 cells assessed as reduction in cell viability incubated for 96 hrs by MTT method
Type: functional, cell-based
conditions_used: MCF7, 96 h
experimental_readout: pIC50
Value format note: pIC50 is -log10 of concentration (mol/L); just state the number.

Reference set, count: 3
{"structure": "C=C1C(=O)C2=C[C@H]1CCC(=O)[C@]1(C)C(=O)CCC(C)(C)[C@H]1C[C@H]2O", "reported_result": 6.42}
{"structure": "C=C1C(=O)O[C@H]2C3=C(CC[C@@H]12)[C@@]1(C)[C@H](CC3=O)C(C)(C)CC[C@H]1OC(C)=O", "reported_result": 5.91}
{"structure": "C=C1C(=O)C2=C[C@H]1CCC(=O)[C@@]1(C)[C@H](C[C@H]2OC(C)=O)C(C)(C)CC[C@H]1OC(C)=O", "reported_result": 6.65}

Here is the next item to consider.
Can you look up pIC50 on MCF7 for "C=C1C(=O)C2=C[C@H]1CCC(=O)[C@]1(C)[C@H](O)CCC(C)(C)[C@H]1C[C@H]2OC(=O)c1ccccc1" ?
6.00

----------
Test system: MCF7
test_summary: Cytotoxicity against human MCF7 cells assessed as reduction in cell viability incubated for 96 hrs by MTT method
Format: functional, cell-based
conditions_used: MCF7, 96 h
# IC50 per entry
Just the number in nM, nothing appended.

Reference set, count: 5
{"structure": "C=C1C(=O)C2=C[C@H]1CCC(=O)[C@]1(C)[C@H](O)CCC(C)(C)[C@H]1C[C@H]2OC", "reported_result": 215}
{"structure": "C=C1C(=O)C2=C[C@H]1CCC(=O)[C@]1(C)C(=O)CCC(C)(C)[C@H]1C[C@H]2OC(C)=O", "reported_result": 538}
{"structure": "C=C1C(=O)C2=C[C@H]1CCC(=O)[C@]1(C)[C@H](O)CCC(C)(C)[C@H]1C[C@H]2OC(C)=O", "reported_result": 587}
{"structure": "C=C1C(=O)C2=C[C@H]1CCC(=O)[C@@]1(C)[C@H](C[C@H]2OC(=O)CCl)C(C)(C)CC[C@H]1OC(C)=O", "reported_result": 235}
{"structure": "C=CC(=O)O[C@@H]1C[C@@H]2C(C)(C)CC[C@@H](OC(=O)C=C)[C@@]2(C)C(=O)CC[C@@H]2C=C1C(=O)C2=C", "reported_result": 1120}

Entry "C=C1C(=O)C2=C[C@H]1CCC(=O)[C@@]1(C)[C@H](C[C@H]2OCC)C(C)(C)CC[C@H]1OC(C)=O" has what IC50?
266

Now the same for "C=C1C(=O)[C@]23O[C@H]2[C@H]1CCC(=O)[C@]1(C)[C@H](O)CCC(C)(C)[C@H]1C[C@H]3O"
1600

----------
Tested on: MCF7
test_summary: Cytotoxicity against human MCF7 cells assessed as reduction in cell viability incubated for 96 hrs by MTT method
Type: functional, cell-based
conditions_used: MCF7, 96 h
experimental_readout: IC50

Reference set, count: 5
{"structure": "CC1(C)C(=O)CC[C@]2(C)[C@@H]1CC[C@]13C[C@H]4C[C@H](O[C@@]4(C)C1)[C@H]32", "reported_result": "> 5000 nM"}
{"structure": "C=C1C(=O)C2=C[C@H]1CCC(=O)[C@]1(C)C(=O)CCC(C)(C)[C@H]1C[C@H]2OC(=O)c1ccccc1", "reported_result": "882 nM"}
{"structure": "CC1(C)C(=O)CC[C@]2(C)[C@@H]1CC[C@@]13C[C@@H](CC[C@H]12)[C@@](O)(CO)C3", "reported_result": "> 5000 nM"}
{"structure": "C=C1C(=O)C2=C[C@H]1CCC(=O)[C@@]1(C)[C@H](C[C@H]2O)C(C)(C)CC[C@H]1OC(C)=O", "reported_result": "120 nM"}
{"structure": "CC1(C)C(=O)CC[C@]2(C)[C@@H]1CC[C@@]13C[C@@H](CC[C@H]12)[C@@H](CO)C3", "reported_result": "> 5000 nM"}

Entry "C=C1C(=O)C2=C[C@H]1CCC(=O)[C@]1(C)C(=O)CCC(C)(C)[C@H]1C[C@H]2OC(=O)CCl" has what IC50?
505 nM

----------
Test system: MCF7
test_summary: Cytotoxicity against human MCF7 cells assessed as reduction in cell viability incubated for 96 hrs by MTT method
Assay type: functional, cell-based
conditions_used: MCF7, 96 h
experimental_readout: pIC50
Value format note: pIC50 is -log10 of concentration (mol/L); just state the number.

Entry "C=C1C(=O)[C@@]23[C@H](O)C[C@@H]4C(C)(C)CC[C@@H](O)[C@@]4(C)[C@]2(O)CC[C@@H]1[C@H]3O" has what pIC50?
6.61

Now the same for "C=C1C(=O)C2=C[C@H]1CCC(=O)[C@]1(C)[C@H](O)CCC(C)(C)[C@H]1C[C@H]2OC(=O)CCl"
5.96

Now the same for "C=CC(=O)O[C@@H]1C[C@@H]2C(C)(C)CC[C@@H](O)[C@@]2(C)C(=O)CC[C@@H]2C=C1C(=O)C2=C"
5.91

Now the same for "C=C1C(=O)C2=C[C@H]1CCC(=O)[C@]1(C)[C@H](O)CCC(C)(C)[C@H]1C[C@H]2O"
6.95

Now the same for "C=C1C(=O)C2=C[C@H]1CCC(=O)[C@]1(C)[C@H](O)CCC(C)(C)[C@H]1C[C@H]2OC(=O)CC"
6.00

Now the same for "C=C(C)CC(=O)O[C@@H]1C[C@@H]2C(C)(C)CC[C@@H](O)[C@@]2(C)C(=O)CC[C@@H]2C=C1C(=O)C2=C"
5.92
